Recorded below: pIC50, system NAMPT (Homo sapiens).
pIC50: −log10 of the molar value.
observation_type: pIC50

# molecule, observation_type, value
rows = [
    ("CC(C)CC(=O)N1CC(c2ccc(C(=O)NCc3ccn4ccnc4c3)cc2)C1", "pIC50", 9.15),
    ("O=C(NCc1ccn2ccnc2c1)c1ccc(C2CCN(C(=O)c3cc(F)cc(F)c3)C2)cc1 (stereo not drawn)", "pIC50", 9.10),
    ("O=C(NCc1ccn2ccnc2c1)Nc1ccc(OC2CCN(C(=O)c3ccc(F)cc3F)CC2)cc1", "pIC50", 9.11),
]

----------
molecular target: NAMPT (human, recombinant, C-terminally His-tagged) (Homo sapiens, UniProt P43490); test: Time-Resolved Fluorescence Resonance Energy Transfer (TR-FRET) Binding Assay of NAMPT; details: without substrates; 6.8 nM NAMPT, 200 nM probe, 3 hours equilibration
Sequence (P43490 whole entry): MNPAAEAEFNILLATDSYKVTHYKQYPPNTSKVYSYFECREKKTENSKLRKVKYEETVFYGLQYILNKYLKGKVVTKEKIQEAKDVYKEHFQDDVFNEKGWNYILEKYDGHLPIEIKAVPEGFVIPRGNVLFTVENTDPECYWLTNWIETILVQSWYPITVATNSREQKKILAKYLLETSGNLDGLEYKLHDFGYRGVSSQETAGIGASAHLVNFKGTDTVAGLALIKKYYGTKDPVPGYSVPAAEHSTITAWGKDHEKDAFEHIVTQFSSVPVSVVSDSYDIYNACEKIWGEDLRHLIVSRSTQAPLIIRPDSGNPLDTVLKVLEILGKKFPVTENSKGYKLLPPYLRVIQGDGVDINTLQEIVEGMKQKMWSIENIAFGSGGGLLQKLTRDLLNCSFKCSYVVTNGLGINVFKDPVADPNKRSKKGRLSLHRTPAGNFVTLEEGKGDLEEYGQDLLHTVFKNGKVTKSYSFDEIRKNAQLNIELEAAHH
Classification scheme (IC50): LOW (below 0.1 µM), MID (0.1 µM to below 0.3 µM), HIGH (0.3 µM or more)

# compound, assigned_label
rows = [
    ("O=C(NCc1ccc2nccn2c1)c1ccc(C2=CCN(C(=O)CC3CCOC3)CC2)cc1 (stereo not drawn)", "MID"),
    ("O=C(NCc1ccc2nccn2c1)c1ccc(OC2CCN(C(=O)[C@@H]3CCCO3)CC2)cc1", "HIGH"),
    ("CCCn1cc(-c2ccc(NC(=O)NCc3ccc4nccn4c3)cc2)cn1", "MID"),
    ("CC(C)(C)OC(=O)N1CCC(c2ccc(C(=O)Nc3ccc4nccn4c3)cc2)CC1", "HIGH"),
    ("O=C(NCc1ccn2ccnc2c1)Nc1ccc(C2=CCN(C(=O)C3CCCO3)CC2)cc1F (stereo not drawn)", "LOW"),
    ("CC(C)OCCNC(=O)N(CC1CCOCC1)c1ncc(C(=O)NCc2ccc3nccn3c2)s1", "HIGH"),
    ("O=C(NCc1ccn2ccnc2c1)c1ccc(C2CCN(C(=O)C(F)(F)c3ccccc3)C2)cc1 (stereo not drawn)", "MID"),
    ("Cn1cccc1C(=O)N1CC(c2ccc(C(=O)NCc3ccn4ccnc4c3)cc2)C1", "MID"),
    ("O=C(NCc1ccn2ccnc2c1)c1ccc(C2CCN(C(=O)c3ccccc3C(F)(F)F)CC2)cc1", "LOW"),
    ("COc1ccccc1C(=O)N1CC(c2ccc(C(=O)NCc3ccn4ccnc4c3)cc2)C1", "MID"),
    ("Cn1cc(-c2ccc(C(=O)NCc3ccn4ccnc4c3)s2)cn1", "MID"),
    ("O=C(NCc1ccn2ccnc2c1)c1ccc(-c2cnn(CC3CCCCO3)c2)o1 (stereo not drawn)", "LOW"),
    ("O=C(NCc1ccc2nccn2c1)c1ccc(-c2cnn(CC3CCOC3)c2)s1 (stereo not drawn)", "LOW"),
    ("O=C(NCc1ccn2ccnc2c1)Nc1ccc(C2CCN(C(=O)C3CCS(=O)(=O)CC3)CC2)cc1", "MID"),
    ("O=C(NCc1ccn2ccnc2c1)c1cnc(C2=CCN(C(=O)C3CCOCC3)CC2)s1", "HIGH"),
    ("Cc1cccc(C(=O)N2CC(c3ccc(C(=O)NCc4ccn5ccnc5c4)cc3)C2)c1", "MID"),
    ("O=C(CC1CCCC1)Nc1ccc(NC(=O)NCc2ccc3nccn3c2)cc1", "LOW"),
    ("O=C(NCc1ccn2ccnc2c1)c1ccc(C2CCN(C(=O)c3cnccn3)C2)s1 (stereo not drawn)", "MID"),
    ("O=C(NCc1ccn2ccnc2c1)Nc1ccc(C2CCN(C(=O)c3ccc(F)c(F)c3)CC2)cc1", "MID"),
    ("O=C(NCc1ccn2ccnc2c1)c1ccc(C2CN(C(=O)c3cccc(C(F)(F)F)c3)C2)cc1", "HIGH"),
    ("O=C(Nc1ccc(C2=CCN(C(=O)C3COCCO3)CC2)cc1)Nc1ccc2nccn2c1 (stereo not drawn)", "HIGH"),
    ("O=C(NCc1cn2ccnc2cn1)c1ccc(C2CCN(C(=O)c3cc(F)ccc3F)CC2)cc1", "LOW"),
    ("O=C(NCc1ccn2ccnc2c1)c1ccc(C2CN(C(=O)c3ccncn3)C2)cc1", "HIGH"),
    ("O=C(Nc1ccc(C2CCN(C(=O)CC3CCOC3)CC2)cc1)Nc1ccc2nccn2c1 (stereo not drawn)", "HIGH"),
    ("CC1(Cn2cc(-c3ccc(C(=O)NCc4ccc5ncnn5c4)o3)cn2)CCOCC1", "MID"),
    ("O=C(NCc1ccc2nccn2c1)c1cnc(N(CC2CCCO2)C(=O)Cc2nnn[nH]2)s1 (stereo not drawn)", "MID"),
    ("O=C(NCc1ccn2ccnc2c1)c1ccc(C2CCN(C(=O)c3ccc(Cl)cc3)CC2)cc1", "MID"),
]

All figures here come from patent US9187472B2.
